The measured values listed here are drawn from patent US9884825B2.

Tested on: human embryonic kidney 293 cells (Hek)
TEST PROTOCOL: MTT cytotoxicity assay, Hek cells
Type: cell-based
APPLIED CONDITIONS: Hek 293 cells, 48 h incubation
REPORTED ENDPOINT: IC50 (µM)
Answer in µM, number only, no unit symbol.

>  <LINE NOTATION>
Cc1ccc(S(=O)(=O)N2C/C(=C\c3ccc(Br)cc3)C(=O)/C(=C/c3ccc(Br)cc3)C2)cc1

>  <IC50 [µM]>
1.39

$$$$
>  <LINE NOTATION>
Cc1ccc(S(=O)(=O)N2C/C(=C\c3ccc(F)cc3)C(=O)/C(=C/c3ccc(F)cc3)C2)cc1

>  <IC50 [µM]>
1.24

$$$$
>  <LINE NOTATION>
CCN1C/C(=C\c2ccc(C(C)C)cc2)C(=O)/C(=C/c2ccc(C(C)C)cc2)C1

>  <IC50 [µM]>
1.78

$$$$

Continue with the next molecule.
-- ask Would you kindly share the measured IC50 for O=C1/C(=C/c2ccc(Cl)cc2)CN(S(=O)(=O)c2ccccc2)C/C1=C\c1ccc(Cl)cc1 ?
-- reply 1.97

---

A collection of compounds and their measured IC50
Test system: DU145 cell
TEST PROTOCOL: Cytotoxicity against DU145 cell line
Assay type: cell-based
APPLIED CONDITIONS: Homo sapiens, DU-145, mean ± spread, unit inferred, read-out: IC50 DU145 cell (Table 6)
Answer in µM, number only, no unit symbol.

Consider the worked cases shown below.
>  <LINE NOTATION>
Cc1ccc(/C=C2\CN(Cc3cn(CCCNc4ccnc5cc(Cl)ccc45)nn3)C/C(=C\c3ccc(C)cc3)C2=O)cc1

>  <IC50 / µM>
4

$$$$
>  <LINE NOTATION>
O=C1/C(=C/c2ccc(Br)cc2)CN(Cc2cn(CCCNc3ccnc4cc(Cl)ccc34)nn2)C/C1=C\c1ccc(Br)cc1

>  <IC50 / µM>
1.9

$$$$
>  <LINE NOTATION>
O=C1/C(=C/c2cccc(Br)c2)CN(Cc2cn(CCNc3ccnc4cc(Cl)ccc34)nn2)C/C1=C\c1cccc(Br)c1

>  <IC50 / µM>
9.6

$$$$

-- ask // fetch DU145 cell IC50 for O=C1/C(=C/c2ccc(Cl)cc2)CN(Cc2cn(CCNc3ccnc4cc(Cl)ccc34)nn2)C/C1=C\c1ccc(Cl)cc1
-- reply 3.1

---

Test system: human cervical cancer cells (HeLa)
TEST PROTOCOL: MTT cytotoxicity assay, HeLa cells
Format: cell-based
APPLIED CONDITIONS: Homo sapiens; HeLa cell; mean ± spread; unit inferred; read-out: IC50 HeLa cell (Table 6)
REPORTED ENDPOINT: pIC50
Would you please state pIC50, meaning minus log10 of the concentration in mol/L, as a bare number?

>  <COMPOUND>
COc1ccc(/C=C2\CN(Cc3cn(CCCNc4ccnc5cc(Cl)ccc45)nn3)C/C(=C\c3ccc(OC)cc3)C2=O)cc1

>  <pIC50>
5.30

$$$$
>  <COMPOUND>
O=C1/C(=C/c2ccc(Br)cc2)CN(Cc2cn(CCCNc3ccnc4cc(Cl)ccc34)nn2)C/C1=C\c1ccc(Br)cc1

>  <pIC50>
5.70

$$$$
>  <COMPOUND>
COc1cccc2c1C(=O)c1c(O)c3c(c(O)c1C2=O)C[C@@](O)(C(=O)CO)C[C@@H]3O[C@H]1C[C@H](N)[C@H](O)[C@H](C)O1 [Doxorubicin, reference compound]

>  <pIC50>
6.02

$$$$

Continue with the next compound.
-- ask Would you kindly share the measured pIC50 for O=C1/C(=C/c2cccc(Br)c2)CN(Cc2cn(CCNc3ccnc4cc(Cl)ccc34)nn2)C/C1=C\c1cccc(Br)c1 ?
-- reply 5.60
